Attribution: patent US20150368242A1

subjectOfTest: recombinant human MGAT2 enzyme (Homo sapiens)
Construct: made in house; host or cells: CHO-K1 (Jump-In CHO-K1 Kit, Life Technologies); microsomal fraction used as the enzyme solution
measurementDescription: Test for human MGAT2 activity inhibitory action (14C-oleoyl CoA, recombinant enzyme microsomes)
Format: biochemical
conditionParameters: IC50 (nM), Table 5, Examples 25 to 60, same method
Method: The human MGAT2 gene described in Am. J. Physiol. Endocrinol. Metab. 285: E927-E937, 2003 was expressed using Jump-In™ CHO-K1 Kit (Life technologies) as described in the attached manual. […] After 30 minutes, the reaction was stopped by adding 300 μl of isopropanol:heptane:water=(80:20:2) to the reaction liquid. […] Then, the ^14C count was quantitatively determined using TopCount NXT™ microplate scintillation luminescence counter (Perkin Elmer). […]
Counter-ions that a name gives are not always drawn.
propertyName: IC50 (nM)
Answer in nM, number only, no unit symbol.

[ask] Find the recorded IC50 belonging to O=C(CCNCC1COc2ccccc2O1)N1CCc2nc(SC3CCC3)n(-c3ccccc3)c(=O)c2C1 (stereo not shown) [Example 60, trifluoroacetate] and report it.
[reply] 1.1

---

subjectOfTest: recombinant human MGAT2 enzyme (Homo sapiens)
Construct: made in house; host or cells: CHO-K1 (Jump-In CHO-K1 Kit, Life Technologies); microsomal fraction used as the enzyme solution
measurementDescription: Test for human MGAT2 activity inhibitory action (14C-oleoyl CoA, recombinant enzyme microsomes)
Format: biochemical
Design: key: % inhibition = {1−(C−B)/(A−B)}×100, B = 10 μM Comparative Example 1
conditionParameters: First Test (Table 3); relative to Comparative Example 1, greater value = higher inhibitory action
Experimental: The human MGAT2 gene described in Am. J. Physiol. Endocrinol. Metab. 285: E927-E937, 2003 was expressed using Jump-In™ CHO-K1 Kit (Life technologies) as described in the attached manual. […] After 30 minutes, the reaction was stopped by adding 300 μl of isopropanol:heptane:water=(80:20:2) to the reaction liquid. […] Then, the ^14C count was quantitatively determined using TopCount NXT™ microplate scintillation luminescence counter (Perkin Elmer). […]
Counter-ions that a name gives are not always drawn.
Classification field: enter MET for Potency relative to Comparative Example 1 (higher = more potent) values not below 60, NOT MET for values below it.

[ask] Quick check, Potency relative to Comparative Example 1 (higher = more potent) >= 60? O=C(CNCCCc1ccccc1)N1CCc2nc(SC3CCC3)n(-c3ccccc3)c(=O)c2C1 [Example 2, trifluoroacetate]
[reply] MET

[ask] Could you please find out whether O=C(CCNCc1ccccc1)N1CCc2nc(SC3CCC3)n(-c3ccccc3)c(=O)c2C1 [Example 10, trifluoroacetate] has Potency relative to Comparative Example 1 (higher = more potent) that meets 60 or exceeds it?
[reply] MET

[ask] Item O=C(CNCCc1ccccc1)N1CCc2nc(SC3CCC3)n(-c3ccccc3)c(=O)c2C1 [Example 8, trifluoroacetate] with Potency relative to Comparative Example 1 (higher = more potent) of 60 or above?
[reply] MET

[ask] Could you please find out whether O=C(CNCc1ccc(COc2ccccc2)cc1)N1CCc2nc(SC3CCC3)n(-c3ccccc3)c(=O)c2C1 [Example 7, trifluoroacetate] has Potency relative to Comparative Example 1 (higher = more potent) that meets 60 or exceeds it?
[reply] MET

[ask] Please tell me: is the compound O=C(CNCCOc1ccc(F)c(F)c1)N1CCc2nc(SC3CCC3)n(-c3ccccc3)c(=O)c2C1 [Example 9, trifluoroacetate] at or over 60 in terms of Potency relative to Comparative Example 1 (higher = more potent)?
[reply] NOT MET

[ask] In plain terms: is recorded Potency relative to Comparative Example 1 (higher = more potent) at least 60 for O=C(CNCc1cccc(Cl)c1)N1CCc2nc(SC3CCC3)n(-c3ccccc3)c(=O)c2C1 [Example 4] ?
[reply] MET

[ask] Is Potency relative to Comparative Example 1 (higher = more potent) for O=C(CNCc1ccc(C(F)(F)F)cc1)N1CCc2nc(SC3CCC3)n(-c3ccccc3)c(=O)c2C1 [Example 1, trifluoroacetate] at or above 60?
[reply] NOT MET

[ask] Check the entry O=C(CNCc1ccc(OCc2ccc(C(F)(F)F)cc2)cc1)N1CCc2nc(SC3CCC3)n(-c3ccccc3)c(=O)c2C1 [Example 6, hydrate trifluoroacetate] : does Potency relative to Comparative Example 1 (higher = more potent) equal or exceed 60?
[reply] MET

---

Please provide measured IC50 for the entries that follow.
subjectOfTest: recombinant human MGAT2 enzyme (Homo sapiens, UniProt Q3SYC2)
Construct: made in house; host or cells: CHO-K1 (Jump-In CHO-K1 Kit, Life Technologies); microsomal fraction used as the enzyme solution
Sequence (Q3SYC2 whole entry): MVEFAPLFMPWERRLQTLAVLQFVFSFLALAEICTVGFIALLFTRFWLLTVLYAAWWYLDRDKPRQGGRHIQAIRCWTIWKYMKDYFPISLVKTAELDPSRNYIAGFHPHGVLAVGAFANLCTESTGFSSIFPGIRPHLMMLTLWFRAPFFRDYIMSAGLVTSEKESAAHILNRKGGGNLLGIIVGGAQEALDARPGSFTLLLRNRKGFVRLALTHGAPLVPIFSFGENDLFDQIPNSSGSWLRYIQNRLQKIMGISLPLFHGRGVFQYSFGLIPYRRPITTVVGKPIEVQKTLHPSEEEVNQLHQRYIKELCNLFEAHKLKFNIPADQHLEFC
measurementDescription: Test for human MGAT2 activity inhibitory action (14C-oleoyl CoA, recombinant enzyme microsomes)
Assay type: biochemical
conditionParameters: Table 5, Examples 25 to 60, same method; read-out: IC50
Where a name gives a salt, the structure may show the parent alone.

[ask] Item O=C(CNCc1ccc(Oc2cccc(C(F)(F)F)c2)cc1)N1CCc2nc(SC3CCC3)n(-c3ccccc3)c(=O)c2C1 [Example 54] with recombinant human MGAT2 enzyme (Homo sapiens, UniProt Q3SYC2) - IC50?
[reply] 2.6 nM

[ask] Under recombinant human MGAT2 enzyme (Homo sapiens, UniProt Q3SYC2): IC50 value of O=C(CCNCCOc1ccc(F)cc1)N1CCc2nc(SC3CCC3)n(-c3ccccc3)c(=O)c2C1 [Example 46, trifluoroacetate] ?
[reply] < 1 nM

[ask] Give the reported IC50 for O=C(CCNCCCOc1ccc(F)cc1)N1CCc2nc(SC3CCC3)n(-c3ccccc3)c(=O)c2C1 [Example 47, trifluoroacetate] (system: recombinant human MGAT2 enzyme (Homo sapiens, UniProt Q3SYC2)).
[reply] 1.1 nM

[ask] Checklist item: IC50 tested on recombinant human MGAT2 enzyme (Homo sapiens, UniProt Q3SYC2), entry O=C(CNCCCCCOc1ccc(F)cc1)N1CCc2nc(SC3CCC3)n(-c3ccccc3)c(=O)c2C1 [Example 53, trifluoroacetate] , value?
[reply] 2 nM

---

subjectOfTest: recombinant human MGAT2 enzyme (Homo sapiens)
Construct: made in house; host or cells: CHO-K1 (Jump-In CHO-K1 Kit, Life Technologies); microsomal fraction used as the enzyme solution
measurementDescription: Test for human MGAT2 activity inhibitory action (14C-oleoyl CoA, recombinant enzyme microsomes)
Assay type: biochemical
Design: key: % inhibition = {1−(C−B)/(A−B)}×100, B = 10 μM Comparative Example 1
conditionParameters: Table 5; relative to Comparative Example 1 measured in the same run
Counter-ions that a name gives are not always drawn.
# if value of Potency relative to Comparative Example 1 (higher = more potent) reaches 100, tag Met; if it stays below, tag Not met

[ask] Would you say O=C(CCNCc1ccc2c(c1)CCO2)N1CCc2nc(SC3CCC3)n(-c3ccccc3)c(=O)c2C1 [Example 32, trifluoroacetate] shows Potency relative to Comparative Example 1 (higher = more potent) at minimum 100?
[reply] Met

[ask] // inclusive: Potency relative to Comparative Example 1 (higher = more potent) at least 100? input: O=C(CCNCC1CCCC(C(F)(F)F)C1)N1CCc2nc(SC3CCC3)n(-c3ccccc3)c(=O)c2C1 (centres unmarked) [Example 39, trifluoroacetate]
[reply] Met

[ask] Is the recorded value of Potency relative to Comparative Example 1 (higher = more potent) equal to or greater than 100 for this compound? O=C(CNCCCCCOC1CCC(F)(F)CC1)N1CCc2nc(SC3CCC3)n(-c3ccccc3)c(=O)c2C1 [Example 58, trifluoroacetate]
[reply] Not met

[ask] hey, is Potency relative to Comparative Example 1 (higher = more potent) for this one >= 100? O=C(CNCCCCCOC1CCCCC1)N1CCc2nc(SC3CCC3)n(-c3ccccc3)c(=O)c2C1 [Example 57, trifluoroacetate]
[reply] Not met

[ask] Check this compound for Potency relative to Comparative Example 1 (higher = more potent) at or above 100: O=C(CNCCCCCOc1ccc(F)cc1)N1CCc2nc(SC3CCC3)n(-c3ccccc3)c(=O)c2C1 [Example 53, trifluoroacetate]
[reply] Met

[ask] Check if Potency relative to Comparative Example 1 (higher = more potent) >= 100 (inclusive). Item: O=C(CCNCCNc1ccccc1)N1CCc2nc(SC3CCC3)n(-c3ccccc3)c(=O)c2C1 [Example 38]
[reply] Met

[ask] Hello, I need to know if O=C(CNCCOc1ccc(F)cc1)N1CCc2nc(SC3CCC3)n(-c3ccccc3)c(=O)c2C1 [Example 51, trifluoroacetate] has measured Potency relative to Comparative Example 1 (higher = more potent) not below 100. Thanks!
[reply] Not met

[ask] Determine whether this compound has Potency relative to Comparative Example 1 (higher = more potent) no lower than 100: O=C(CNCc1ccc(Oc2cccc(C(F)(F)F)c2)cc1)N1CCc2nc(SC3CCC3)n(-c3ccccc3)c(=O)c2C1 [Example 54]
[reply] Not met

[ask] Record [2H]c1c([2H])c([2H])c(C([2H])([2H])NCCC(=O)N2CCc3nc(SC4CCC4)n(-c4ccccc4)c(=O)c3C2)c([2H])c1[2H] [Example 25, trifluoroacetate] ; criterion: Potency relative to Comparative Example 1 (higher = more potent) no lower than 100. Met?
[reply] Met

[ask] Exam item: decide whether the reported Potency relative to Comparative Example 1 (higher = more potent) for O=C(CCNCc1ccc2c(c1)OCO2)N1CCc2nc(SC3CCC3)n(-c3ccccc3)c(=O)c2C1 [Example 28, trifluoroacetate] is at least 100.
[reply] Met

[ask] Textbook exercise: given the entry O=C(CCNCc1nnc(Cc2ccc(C(F)(F)F)cc2)o1)N1CCc2nc(SC3CCC3)n(-c3ccccc3)c(=O)c2C1 [Example 56] , state whether its Potency relative to Comparative Example 1 (higher = more potent) is greater than or equal to 100.
[reply] Not met

[ask] Tell me whether Potency relative to Comparative Example 1 (higher = more potent) is at least 100 here: O=C(CNCCCOc1ccc(F)cc1)N1CCc2nc(SC3CCC3)n(-c3ccccc3)c(=O)c2C1 [Example 50, trifluoroacetate]
[reply] Not met

[ask] Quick check: does O=C(CNCCCCOc1ccc(F)cc1)N1CCc2nc(SC3CCC3)n(-c3ccccc3)c(=O)c2C1 [Example 52, trifluoroacetate] have Potency relative to Comparative Example 1 (higher = more potent) greater than or equal to 100?
[reply] Met

[ask] Is Potency relative to Comparative Example 1 (higher = more potent) for O=C(CCNCC#CCOc1ccc(C(F)(F)F)cc1)N1CCc2nc(SC3CCC3)n(-c3ccccc3)c(=O)c2C1 [Example 59, trifluoroacetate] at or above 100?
[reply] Met
